# TARGET_OF_ASSAY: hSERT (Homo sapiens, UniProt P31645)
# Construct: expressed in transfected cells; host or cells: HEK 293 cells (membrane preparations)
# Sequence (P31645 whole entry): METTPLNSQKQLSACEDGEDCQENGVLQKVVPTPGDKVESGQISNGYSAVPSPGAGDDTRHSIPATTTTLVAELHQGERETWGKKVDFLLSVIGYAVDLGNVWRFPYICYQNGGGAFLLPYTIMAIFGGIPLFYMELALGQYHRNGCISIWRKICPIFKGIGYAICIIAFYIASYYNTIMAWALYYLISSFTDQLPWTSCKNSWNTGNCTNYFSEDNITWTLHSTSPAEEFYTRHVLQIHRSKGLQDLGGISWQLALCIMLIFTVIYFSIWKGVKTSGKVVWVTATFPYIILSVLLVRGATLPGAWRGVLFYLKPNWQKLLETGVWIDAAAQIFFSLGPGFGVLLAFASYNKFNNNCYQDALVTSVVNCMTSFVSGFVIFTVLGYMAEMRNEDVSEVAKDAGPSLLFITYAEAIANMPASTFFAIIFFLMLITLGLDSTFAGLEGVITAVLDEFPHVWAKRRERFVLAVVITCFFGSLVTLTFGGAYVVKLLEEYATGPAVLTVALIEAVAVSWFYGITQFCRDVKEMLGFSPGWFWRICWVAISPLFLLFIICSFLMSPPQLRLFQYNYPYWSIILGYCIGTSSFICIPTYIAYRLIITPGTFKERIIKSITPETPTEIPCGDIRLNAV
# TEST_SUMMARY: Radioligand binding at hSERT ([3H]citalopram)
pKi: −log10 of the molar value.
Collected pKi values appear next to each entry.

{"MOLECULE": "COc1cc(CCN)cc(OC)c1OC(F)F", "pKi": "< 5.12"}
{"MOLECULE": "COc1cc(CC(C)N)cc(OC)c1OCCF (centres unmarked)", "pKi": "< 5.12"}
{"MOLECULE": "C=CCOc1c(OC)cc(CC(C)N)cc1OC (centres unmarked)", "pKi": "< 5.12"}
{"MOLECULE": "COc1cc(CCN)cc(OC)c1OC(CF)CF", "pKi": "< 5.12"}
{"MOLECULE": "COc1cc(CCN)cc(OC)c1OCC(F)(F)F", "pKi": "< 5.12"}

----------
Collected Ki values appear next to each entry.
# TARGET_OF_ASSAY: h5-HT2A receptor (Homo sapiens, UniProt P28223)
# Construct: expressed in transfected cells; host or cells: HEK 293 cells (membrane preparations)
# Sequence (P28223 whole entry): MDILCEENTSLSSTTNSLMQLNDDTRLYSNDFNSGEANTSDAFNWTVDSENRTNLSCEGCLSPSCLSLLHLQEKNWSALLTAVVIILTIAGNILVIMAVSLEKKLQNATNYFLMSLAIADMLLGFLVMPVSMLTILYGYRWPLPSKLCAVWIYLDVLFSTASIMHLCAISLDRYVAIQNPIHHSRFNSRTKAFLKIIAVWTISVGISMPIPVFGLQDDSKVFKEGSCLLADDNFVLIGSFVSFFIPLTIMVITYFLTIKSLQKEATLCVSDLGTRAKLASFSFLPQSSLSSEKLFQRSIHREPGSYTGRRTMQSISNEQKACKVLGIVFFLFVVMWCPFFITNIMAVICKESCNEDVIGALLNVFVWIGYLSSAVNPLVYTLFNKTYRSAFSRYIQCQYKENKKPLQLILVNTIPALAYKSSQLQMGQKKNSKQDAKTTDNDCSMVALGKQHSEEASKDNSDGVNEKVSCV
# TEST_SUMMARY: Radioligand binding at h5-HT2A receptor ([3H]ketanserin)
# EXPERIMENTAL_CONDITIONS: h5-HT2A Receptor binding Ki ± SD, [3H]ketanserin; mean ± SD

{"MOLECULE": "COc1cc(CC(C)N)cc(OC)c1OC(F)F (stereo not drawn)", "Ki": "1.4 µM"}
{"MOLECULE": "COc1cc(CC(C)N)cc(OC)c1OCCCF (stereo not drawn)", "Ki": "2.6 µM"}
{"MOLECULE": "COc1cc(CCN)cc(OC)c1OC1CC1", "Ki": "4.3 µM"}
{"MOLECULE": "CCCOc1c(OC)cc(CC(C)N)cc1OC (stereo not drawn)", "Ki": "1 µM"}
{"MOLECULE": "CCOc1c(OC)cc(CC(C)N)cc1OC (stereo not drawn)", "Ki": "3.7 µM"}
{"MOLECULE": "COc1cc(CC(C)N)cc(OC)c1OC (stereo not drawn)", "Ki": "> 12 µM"}
{"MOLECULE": "COc1cc(CCN)cc(OC)c1OC(F)(F)F", "Ki": "0.28 µM"}
{"MOLECULE": "COc1cc(CCN)cc(OC)c1OC", "Ki": "9.4 µM"}
{"MOLECULE": "COc1cc(CCN)cc(OC)c1OCCC(F)(F)F", "Ki": "5 µM"}

----------
# TARGET_OF_ASSAY: human 5-HT2B receptor (Homo sapiens, UniProt P41595)
# Sequence (P41595 whole entry): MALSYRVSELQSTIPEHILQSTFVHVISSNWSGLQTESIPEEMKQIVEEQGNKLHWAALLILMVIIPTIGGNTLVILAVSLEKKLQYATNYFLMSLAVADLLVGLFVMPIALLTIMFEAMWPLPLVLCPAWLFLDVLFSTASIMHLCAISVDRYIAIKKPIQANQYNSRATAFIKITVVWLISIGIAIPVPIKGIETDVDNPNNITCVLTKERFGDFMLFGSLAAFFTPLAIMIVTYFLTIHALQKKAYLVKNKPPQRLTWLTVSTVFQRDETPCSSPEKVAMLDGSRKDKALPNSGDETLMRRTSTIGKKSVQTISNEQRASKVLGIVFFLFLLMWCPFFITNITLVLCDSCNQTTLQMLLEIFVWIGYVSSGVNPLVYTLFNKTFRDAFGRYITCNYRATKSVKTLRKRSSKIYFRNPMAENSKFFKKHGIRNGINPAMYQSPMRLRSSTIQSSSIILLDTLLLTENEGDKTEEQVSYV
# EXPERIMENTAL_CONDITIONS: h5-HT2B Activation potency EC50 ± SD, HEK 293 cells, calcium FLIPR; mean ± SD
pEC50: −log10 of the molar value.
Collected pEC50 values appear next to each entry.

{"COMPOUND": "COc1cc(CCN)cc(OC)c1OCCF", "LT_GT_EQ": "=", "pEC50": 5.64}
{"COMPOUND": "COc1cc(CCN)cc(OC)c1OCC(F)(F)F", "LT_GT_EQ": "=", "pEC50": 6.68}
{"COMPOUND": "COc1cc(CCN)cc(OC)c1OC(F)(F)F", "LT_GT_EQ": "=", "pEC50": 7.06}
{"COMPOUND": "CCCOc1c(OC)cc(CC(C)N)cc1OC (stereo not shown)", "LT_GT_EQ": "<", "pEC50": 5.00}
{"COMPOUND": "C=C(C)COc1c(OC)cc(CCN)cc1OC", "LT_GT_EQ": "<", "pEC50": 5.00}
{"COMPOUND": "COc1cc(CCN)cc(OC)c1OCC(F)F", "LT_GT_EQ": "=", "pEC50": 5.77}
{"COMPOUND": "COc1cc(CC(C)N)cc(OC)c1OC (stereo not shown)", "LT_GT_EQ": "<", "pEC50": 5.00}
{"COMPOUND": "COc1cc(CC(C)N)cc(OC)c1OCCCF (stereo not shown)", "LT_GT_EQ": "<", "pEC50": 5.00}
{"COMPOUND": "COc1cc(CC(C)N)cc(OC)c1OCC(F)F (stereo not shown)", "LT_GT_EQ": "=", "pEC50": 6.59}
{"COMPOUND": "COc1cc(CCN)cc(OC)c1OC", "LT_GT_EQ": "<", "pEC50": 5.00}

These data points were gathered from paper PMC8865417.
